# tested_system: Lysine-specific demethylase 4A (Homo sapiens)
# Sequence (O75164 whole entry): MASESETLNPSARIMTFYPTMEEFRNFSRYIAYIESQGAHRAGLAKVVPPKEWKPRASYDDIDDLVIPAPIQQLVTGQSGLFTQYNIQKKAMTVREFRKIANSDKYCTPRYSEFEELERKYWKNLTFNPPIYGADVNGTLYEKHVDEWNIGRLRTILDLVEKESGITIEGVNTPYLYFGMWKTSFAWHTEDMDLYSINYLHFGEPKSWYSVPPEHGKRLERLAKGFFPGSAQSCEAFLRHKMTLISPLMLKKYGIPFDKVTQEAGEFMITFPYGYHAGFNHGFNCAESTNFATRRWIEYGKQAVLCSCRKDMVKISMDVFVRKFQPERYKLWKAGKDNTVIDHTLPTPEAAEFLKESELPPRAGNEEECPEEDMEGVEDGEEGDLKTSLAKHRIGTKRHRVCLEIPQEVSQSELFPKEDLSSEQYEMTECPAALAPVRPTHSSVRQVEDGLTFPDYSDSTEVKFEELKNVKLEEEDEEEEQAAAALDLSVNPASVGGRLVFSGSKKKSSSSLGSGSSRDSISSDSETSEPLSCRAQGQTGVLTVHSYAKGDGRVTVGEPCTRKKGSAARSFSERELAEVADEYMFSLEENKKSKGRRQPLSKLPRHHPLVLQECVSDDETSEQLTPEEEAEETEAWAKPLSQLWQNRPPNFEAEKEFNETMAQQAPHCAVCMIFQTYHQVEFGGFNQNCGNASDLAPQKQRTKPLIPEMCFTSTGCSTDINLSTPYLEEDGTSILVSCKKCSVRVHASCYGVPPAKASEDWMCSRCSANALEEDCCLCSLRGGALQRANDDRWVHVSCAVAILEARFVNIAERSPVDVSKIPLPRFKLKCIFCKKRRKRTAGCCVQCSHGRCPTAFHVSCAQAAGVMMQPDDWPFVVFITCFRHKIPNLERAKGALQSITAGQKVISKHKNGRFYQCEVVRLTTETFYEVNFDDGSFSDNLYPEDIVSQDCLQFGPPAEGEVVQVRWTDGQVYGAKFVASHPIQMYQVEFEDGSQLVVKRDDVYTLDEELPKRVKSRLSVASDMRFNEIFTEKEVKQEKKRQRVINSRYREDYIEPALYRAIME
# test_description: Inhibition of recombinant His-tagged JMJD2A expressed in Escherichia coli Rosetta 2 (DE3) pLysS cells by formaldehyde dehydrogenase-coupled assay
Cut-off 10 µM on IC50: below means 1, at or above means -1.

molecular_string | tested_system | class
CC(C)CCCCCC(=O)N(O)CCC(=O)O | Lysine-specific demethylase 4A (Homo sapiens) | -1
CC(=O)N(O)CCC(=O)O | Lysine-specific demethylase 4A (Homo sapiens) | -1
CN(C)CCCCCCCC(=O)N(O)CCC(=O)O | Lysine-specific demethylase 4A (Homo sapiens) | 1
CN(C)CCCCCCCCC(=O)N(O)CCC(=O)O | Lysine-specific demethylase 4A (Homo sapiens) | 1
CN(C)CCCCCCCCCCC(=O)N(O)CCC(=O)O | Lysine-specific demethylase 4A (Homo sapiens) | -1
CN(C)CCCCCCC(=O)N(O)CCC(=O)O | Lysine-specific demethylase 4A (Homo sapiens) | 1
O=C(O)CNC(=O)C(=O)O | Lysine-specific demethylase 4A (Homo sapiens) | -1
CN(C)CCCCCCCCN(O)C(=O)CCC(=O)O | Lysine-specific demethylase 4A (Homo sapiens) | 1
CN(C)CCCCCC(=O)N(O)CCC(=O)O | Lysine-specific demethylase 4A (Homo sapiens) | -1
CNCCCCCCCCC(=O)N(O)CCC(=O)O | Lysine-specific demethylase 4A (Homo sapiens) | 1
CN(CCCCCCCCC(=O)N(O)CCC(=O)O)Cc1ccccc1 | Lysine-specific demethylase 4A (Homo sapiens) | 1
CN(C)CCCCCCCCCCCC(=O)N(O)CCC(=O)O | Lysine-specific demethylase 4A (Homo sapiens) | -1
CN(C)CCCCCCCCCC(=O)N(O)CCC(=O)O | Lysine-specific demethylase 4A (Homo sapiens) | 1
CCCCN(C)CCCCCCCCC(=O)N(O)CCC(=O)O | Lysine-specific demethylase 4A (Homo sapiens) | 1

====

# tested_system: Prolyl hydroxylase EGLN2 (Homo sapiens, UniProt Q96KS0)
# Sequence (Q96KS0 whole entry): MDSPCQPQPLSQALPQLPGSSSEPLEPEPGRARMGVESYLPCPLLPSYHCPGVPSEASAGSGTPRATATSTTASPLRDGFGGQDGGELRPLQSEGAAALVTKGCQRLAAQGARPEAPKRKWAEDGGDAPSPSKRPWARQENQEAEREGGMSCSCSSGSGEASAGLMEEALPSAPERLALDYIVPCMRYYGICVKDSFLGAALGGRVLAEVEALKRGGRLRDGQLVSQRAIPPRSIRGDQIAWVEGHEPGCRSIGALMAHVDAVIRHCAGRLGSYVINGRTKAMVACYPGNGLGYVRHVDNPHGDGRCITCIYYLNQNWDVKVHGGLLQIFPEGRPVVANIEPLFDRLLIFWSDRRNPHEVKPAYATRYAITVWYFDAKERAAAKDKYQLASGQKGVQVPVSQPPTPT
# test_description: Inhibition of human recombinant PHD1 expressed in Sf9 cells by time-resolved fluorescence assay
measurement_label: IC50 (µM)

molecular_string | tested_system | measure_unit | value
O=C(O)c1ccnc(C(=O)O)c1 | Prolyl hydroxylase EGLN2 (Homo sapiens, UniProt Q96KS0) | µM | 1.5

====

Listing of recorded pIC50 by entry.
# tested_system: Lysine-specific demethylase 4C (Homo sapiens, UniProt Q9H3R0)
# Sequence (Q9H3R0 whole entry): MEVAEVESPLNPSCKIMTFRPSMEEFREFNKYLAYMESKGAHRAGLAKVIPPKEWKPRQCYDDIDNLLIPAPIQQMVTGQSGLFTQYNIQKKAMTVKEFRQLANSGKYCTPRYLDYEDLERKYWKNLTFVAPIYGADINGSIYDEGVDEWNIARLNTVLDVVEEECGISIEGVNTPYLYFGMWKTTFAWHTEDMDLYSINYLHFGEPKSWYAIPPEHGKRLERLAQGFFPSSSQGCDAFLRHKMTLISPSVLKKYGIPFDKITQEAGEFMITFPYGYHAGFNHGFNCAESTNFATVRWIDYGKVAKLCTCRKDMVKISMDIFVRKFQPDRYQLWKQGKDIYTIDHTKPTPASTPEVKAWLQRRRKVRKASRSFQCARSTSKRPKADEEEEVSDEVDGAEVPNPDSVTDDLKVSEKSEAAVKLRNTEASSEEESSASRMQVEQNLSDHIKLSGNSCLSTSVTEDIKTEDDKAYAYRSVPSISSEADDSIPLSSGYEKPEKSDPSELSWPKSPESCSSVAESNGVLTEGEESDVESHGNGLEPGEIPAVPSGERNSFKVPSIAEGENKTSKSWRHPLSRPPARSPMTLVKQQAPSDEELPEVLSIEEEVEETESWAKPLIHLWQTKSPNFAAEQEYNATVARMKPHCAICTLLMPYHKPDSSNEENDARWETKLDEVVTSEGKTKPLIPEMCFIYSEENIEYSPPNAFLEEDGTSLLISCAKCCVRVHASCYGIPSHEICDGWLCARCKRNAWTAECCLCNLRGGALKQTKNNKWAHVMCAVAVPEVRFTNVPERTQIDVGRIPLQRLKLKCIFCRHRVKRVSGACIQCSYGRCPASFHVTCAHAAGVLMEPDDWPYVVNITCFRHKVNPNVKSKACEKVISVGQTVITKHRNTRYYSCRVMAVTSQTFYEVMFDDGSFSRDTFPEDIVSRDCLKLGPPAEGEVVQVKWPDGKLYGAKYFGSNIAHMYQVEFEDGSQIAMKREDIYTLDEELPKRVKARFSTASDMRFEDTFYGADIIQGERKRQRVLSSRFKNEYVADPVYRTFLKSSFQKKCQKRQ
# test_description: Inhibition of recombinant His-tagged JMJD2C expressed in Escherichia coli Rosetta 2 (DE3) pLysS cells by formaldehyde dehydrogenase-coupled assay
pIC50: −log10 of the molar value.
measurement_label: pIC50

compound | tested_system | value
CC(=O)N(O)CCC(=O)O | Lysine-specific demethylase 4C (Homo sapiens, UniProt Q9H3R0) | 4.47
CN(C)CCCCCCCCN(O)C(=O)CCC(=O)O | Lysine-specific demethylase 4C (Homo sapiens, UniProt Q9H3R0) | 5.70
CN(C)CCCCCCCCCCCC(=O)N(O)CCC(=O)O | Lysine-specific demethylase 4C (Homo sapiens, UniProt Q9H3R0) | 5.06
CN(C)CCCCCCCCC(=O)N(O)CCC(=O)O | Lysine-specific demethylase 4C (Homo sapiens, UniProt Q9H3R0) | 6.00
CN(C)CCCCCCCC(=O)N(O)CCC(=O)O | Lysine-specific demethylase 4C (Homo sapiens, UniProt Q9H3R0) | 5.82
CN(C)CCCCCCCCCC(=O)N(O)CCC(=O)O | Lysine-specific demethylase 4C (Homo sapiens, UniProt Q9H3R0) | 5.80
CNCCCCCCCCC(=O)N(O)CCC(=O)O | Lysine-specific demethylase 4C (Homo sapiens, UniProt Q9H3R0) | 5.77
CN(C)CCCCCCC(=O)N(O)CCC(=O)O | Lysine-specific demethylase 4C (Homo sapiens, UniProt Q9H3R0) | 5.57
CN(CCCCCCCCC(=O)N(O)CCC(=O)O)Cc1ccccc1 | Lysine-specific demethylase 4C (Homo sapiens, UniProt Q9H3R0) | 5.89
CC(C)CCCCCC(=O)N(O)CCC(=O)O | Lysine-specific demethylase 4C (Homo sapiens, UniProt Q9H3R0) | 4.13
CN(C)CCCCCC(=O)N(O)CCC(=O)O | Lysine-specific demethylase 4C (Homo sapiens, UniProt Q9H3R0) | 5.00
O=C(O)CNC(=O)C(=O)O [N-OXALYLGLYCINE] | Lysine-specific demethylase 4C (Homo sapiens, UniProt Q9H3R0) | 3.30
CN(C)CCCCCCCCCCC(=O)N(O)CCC(=O)O | Lysine-specific demethylase 4C (Homo sapiens, UniProt Q9H3R0) | 5.28
